# credit: ChEMBL document CHEMBL1201862

Test system: SK-MEL-2
Assay name: NCI tumour cell line growth inhibition, 48 h
Calls of active or inactive are those of the source. Cut-off read from the data, not from the text of the source: active = GI50 up to about 1.1 µM and inactive = higher.
Parameter: GI50

compound="CN1CCC2(CC1)C(=O)N(NC(N)=O)C(=O)C2c1ccccc1 (centres undefined)" endpoint_value="> 100 µM (inactive)"
compound="O=c1ccn(/C=C/C(O)C(O)CO)c(=O)[nH]1 (centres undefined)" endpoint_value="> 100 µM (inactive)"
compound=CC1(C)CC(=O)c2c([nH]c(=S)c(C#N)c2-c2ccc(Br)cc2)C1 endpoint_value="24.9 µM (inactive)"
compound="CC12CCCC(C(=O)O)(C1)[C@H](C(C)(C)C(=O)O)CC2 (some centres undefined)" endpoint_value="> 100 µM (inactive)"
compound="CCC1CC(C)=CCN1S(=O)(=O)c1ccc(C)cc1 (centres undefined)" endpoint_value="11 µM (inactive)"
compound=CCOC(=O)N1N(c2ccccc2)C(=O)C1(c1ccccc1)c1ccccc1 endpoint_value="20.4 µM (inactive)"
compound=COc1ccc(Nc2c(C#N)c3n(c4ccccc24)c2ccccc2[n+]3C)cc1OC endpoint_value="3.86 µM (inactive)"
compound="NC(Cc1ccc(S(=O)(=O)O)cc1)C(=O)NC(Cc1ccc(S(=O)(=O)O)cc1)C(=O)NC(Cc1ccc(S(=O)(=O)O)cc1)C(=O)NC(Cc1ccc(S(=O)(=O)O)cc1)C(=O)O (centres undefined)" endpoint_value="> 100 µM (inactive)"
compound=COc1ccc(/C=N/N=C(\N)NO)c(OC)c1C endpoint_value="22.3 µM (inactive)"
compound=CCOC(=O)C(=O)CC(=O)C1=C(c2ccccc2OC)CC(c2cccs2)=CC1=O endpoint_value="78.9 µM (inactive)"
compound=CCOC(=O)Nn1c(C)nnc1CC#N endpoint_value="> 100 µM (inactive)"
compound="CC(C(=O)O)c1cnn(-c2ccccc2)c1-n1cccc1 (centres undefined)" endpoint_value="> 100 µM (inactive)"
compound=COC(=O)/C=C\Sc1ccn(/C=C\C(=O)OC)c(=S)n1 endpoint_value="19.9 µM (inactive)"
compound="COc1cc(CC2c3cc(OC)c(OC)cc3CCN2C)c(C(=O)O)cc1OC (centres undefined)" endpoint_value="> 100 µM (inactive)"
compound="CC1=NNC(=O)C1C1CC(c2c[nH]c3ccccc23)=NN=C1Cl (centres undefined)" endpoint_value="> 100 µM (inactive)"
compound="C=C(C)C1CC2C(C)=C(OC(C)=O)C1n1c(=O)c3cc4ccccc4cc3c(=O)n12 (centres undefined)" endpoint_value="> 100 µM (inactive)"
compound="O=C(CC1C(=O)Nc2ccccc2[S+]1[O-])Nc1cccc(Cl)c1 (centres undefined)" endpoint_value="55.5 µM (inactive)"
compound=COc1ccc(OC)c2c1-c1nnnn1CCC2(C)C endpoint_value="> 100 µM (inactive)"
compound="CCCCCCCCCC1CC(=O)Oc2cccc(O)c21 (centres undefined)" endpoint_value="20.6 µM (inactive)"
compound=COc1cc2cc[n+]3c(C)c4cc(OC)c(OC)cc4c([O-])c3c2cc1OC endpoint_value="56.9 µM (inactive)"
compound=C[C@H](NC1=C(Cl)C(=O)c2c(O)ccc(O)c2C1=O)C(=O)Nc1ccc([N+](=O)[O-])cc1 endpoint_value="3.52 µM (inactive)"
compound="COC(OC)C(O)C1OC=CC1n1cnc2c(N)ncnc21 (centres undefined)" endpoint_value="> 100 µM (inactive)"
compound="N/N=C(/C(=O)Nc1cccc(Cl)c1)C(C(=O)c1ccc(O)cc1O)C1OC(=O)c2ccccc21 (centres undefined)" endpoint_value="> 100 µM (inactive)"
compound=Cc1n(-c2ccccc2)c2c([n+]1Cc1ccc([N+](=O)[O-])cc1)C(=O)c1ccccc1C2=O endpoint_value="1.48 µM (inactive)"
compound=O=C(O)c1c2c(c(O)c3c1CN(C1CCCCC1)CO3)OCN(C1CCCCC1)C2 endpoint_value="> 100 µM (inactive)"
compound="COc1cc2c(cc1OC)C1(c3ccccc3)ON=C(c3ccccc3)N1CS2 (centres undefined)" endpoint_value="> 100 µM (inactive)"
compound="CC1(C)CC2(C)ON=C(c3ccccc3)N2c2ccccc2N1 (centres undefined)" endpoint_value="20.9 µM (inactive)"
compound=CCOC(=O)C1Cc2ccc3c4c(ccc(c24)C1)CC(C(=O)OCC)C3 endpoint_value="> 100 µM (inactive)"
compound=Cc1cc2cc3c(cc2c(-c2ccc([N+](=O)[O-])cc2)n1)OCO3 endpoint_value="39.1 µM (inactive)"
